tested on: F1*sub RNA substrate (template-directed ligation); assay: fraction ligated after 30 min (ligated reads / total reads); higher = more ligase activity; sequences stand for … in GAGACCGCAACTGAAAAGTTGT…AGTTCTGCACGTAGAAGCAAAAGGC; settings: 42 °C
Is fraction ligated at least 0.09? Then Y. If not, N.

Task: I'd appreciate it if you could say whether ATCACTTTGTAAGACACTTTGGATGGGTTGA [3d124] has fraction ligated at least equal to 0.09.
Output: Y

Task: Determine whether this sequence has fraction ligated no lower than 0.09: TATCACTTGTCGTAAGACACTTGGATGGTTG [3d2252]
Output: N

Task: Threshold query (fraction ligated >= 0.09) on TATCCTTGTCGTAAGACACTTTATGGGTTGA [3d1104]
Output: N

Task: Determine whether measured fraction ligated meets or exceeds 0.09 for TATCCTTGTCGTAAGACATTTGATGGGTTGA [3d1091]
Output: Y

Task: Reported fraction ligated at or above 0.09? TATCACTTTCTAGACACTTTGGATGGGTTGA [3d1480]
Output: Y

Task: Tell me whether fraction ligated is at least 0.09 here: TATCACTGTCGTAAGACACTTTATGGGTTGA [3d1447]
Output: N

Task: fraction ligated >= 0.09 for TATCACTGTGTAGACACTTTGGATGGGTTGA [3d1345] ?
Output: Y

Task: Quick check: does TATACTTGTCGTAAGACACTTGGATGGTTGA [3d929] have fraction ligated greater than or equal to 0.09?
Output: Y

Task: Given TATCATTGCGTAAGACATTTGGATGGGTTGA [3d1164] , state whether its fraction ligated is at least 0.09.
Output: Y

Task: Does the reported fraction ligated for TATACTTGTCGTAAGAACTTTGGATGGGTTA [3d909] fall at or above the 0.09 mark?
Output: N

Task: State whether the measured fraction ligated reaches 0.09, counting equality as reaching it, for TATCACTTGTCAAGACACTTTGGTGGGTTGA [3d1818]
Output: Y

Task: Evaluate TATCACTTGTCGTAAGACCTTTGGATGGGTTG [2d268] : fraction ligated at minimum 0.09?
Output: Y

Task: Decide: fraction ligated of TATCACTTGCGTAAAACTTTGGATGGGTTGA [3d1639] >= 0.09?
Output: Y

Task: For this sequence, is measured fraction ligated 0.09 or higher? TATACTTGCGTAAGACACTTTGGATGGGTTGA [2d73]
Output: Y

Task: Would you say TATACTTGTCGTAAGACACTTTGGTGGGTTG [3d941] shows fraction ligated at minimum 0.09?
Output: N

Task: Form field: fraction ligated at least 0.09? Entry: TATCCTTGTCGTAAGCACTTTGGATGGGTTA [3d1073]
Output: Y

Task: Given TATCACTTGTGTAAGACACTTGGATGGGTTG [3d1792] , state whether its fraction ligated is at least 0.09.
Output: Y

Task: Say whether TATCATTGTCGTAAGACACTTGGTGGGTTGA [3d1271] shows fraction ligated of 0.09 or more.
Output: Y

Task: Determine whether this sequence has fraction ligated no lower than 0.09: TATCACTTGTCGTAAGCATTTGGATGGTTGA [3d2125]
Output: Y

Task: State whether the measured fraction ligated reaches 0.09, counting equality as reaching it, for TTCACTTGTCGTAAGAACTTTGGTGGGTTGA [3d465]
Output: N

Task: Reported fraction ligated at or above 0.09? TACACTTGTCGTAAGAACTTTGGATGGGTTA [3d698]
Output: N

Task: Kindly determine if fraction ligated recorded for TTCACTTGTCGTAGACACTTTGGATGGGTTA [3d440] is above or exactly 0.09.
Output: Y
